Values compiled from patent US9145373B2.

- test_system: KMO mouse enzyme (Mus musculus, UniProt Q91WN4)
- Construct: KMO enzyme prepared at Evotec from mouse liver (4-6 weeks old) via mitochondria isolation; from tissue; host or cells: mouse liver (4-6 weeks old), mitochondria isolation, prepared at Evotec
- Sequence (Q91WN4 whole entry): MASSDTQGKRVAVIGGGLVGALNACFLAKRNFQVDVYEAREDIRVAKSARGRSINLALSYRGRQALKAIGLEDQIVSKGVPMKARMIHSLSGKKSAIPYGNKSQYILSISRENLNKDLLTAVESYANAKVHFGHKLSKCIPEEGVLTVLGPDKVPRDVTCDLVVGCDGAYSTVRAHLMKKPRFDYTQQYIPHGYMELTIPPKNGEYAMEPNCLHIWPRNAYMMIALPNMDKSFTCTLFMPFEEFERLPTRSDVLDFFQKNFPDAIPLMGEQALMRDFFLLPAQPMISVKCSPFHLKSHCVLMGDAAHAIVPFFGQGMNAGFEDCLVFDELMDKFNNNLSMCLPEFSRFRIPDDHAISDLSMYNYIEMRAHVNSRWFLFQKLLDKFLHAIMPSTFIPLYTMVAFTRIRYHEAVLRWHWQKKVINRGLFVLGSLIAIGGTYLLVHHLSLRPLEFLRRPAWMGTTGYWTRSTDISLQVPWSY
- measurement_notes: KMO mouse enzyme assay: L-Kynurenine hydroxylation to 3-Hydroxy-Kynurenine monitored by LC/MS (MRM)
- Assay type: biochemical
- protocol_conditions: compound at 10 μM; KMO enzyme from mouse liver mitochondria
# INH.Mouse @ 10 μM values compiled below
A bare number is all that is needed in reply.

The examples below pair each entry with its known result.
item_smiles | INH.Mouse @ 10 μM
O=C(c1cc(-c2ccc(Cl)c(Cl)c2)ncn1)N1CC2(CC2)c2ccccc21 | 100.0
Cl.O=C(O)c1cc(-c2cc(Cl)cc(Cl)c2)ccn1 | 76.6
CN1CCN(c2ccc(NC(=O)c3cc(-c4cccc(Cl)c4)ncn3)cc2)CC1 | 87.7

Now for the compound whose INH.Mouse @ 10 μM we want.
I have this compound here, `Cc1ccc(NC(=O)c2cc(-c3ccc(Cl)c(Cl)c3)ncn2)cn1.Cl` , and I need its recorded INH.Mouse @ 10 μM.
94.0
